target: TbMCP-1 (Trypanosoma brucei); assay: Continuous fluorogenic (FRET) TbMCP-1 assay with Abz-RFFK(Dnp)-OH, primary and secondary screening; assay type: biochemical; conditions: single inhibitor concentration 31,5 µM
Sequence (Q386R0 entry or part of it): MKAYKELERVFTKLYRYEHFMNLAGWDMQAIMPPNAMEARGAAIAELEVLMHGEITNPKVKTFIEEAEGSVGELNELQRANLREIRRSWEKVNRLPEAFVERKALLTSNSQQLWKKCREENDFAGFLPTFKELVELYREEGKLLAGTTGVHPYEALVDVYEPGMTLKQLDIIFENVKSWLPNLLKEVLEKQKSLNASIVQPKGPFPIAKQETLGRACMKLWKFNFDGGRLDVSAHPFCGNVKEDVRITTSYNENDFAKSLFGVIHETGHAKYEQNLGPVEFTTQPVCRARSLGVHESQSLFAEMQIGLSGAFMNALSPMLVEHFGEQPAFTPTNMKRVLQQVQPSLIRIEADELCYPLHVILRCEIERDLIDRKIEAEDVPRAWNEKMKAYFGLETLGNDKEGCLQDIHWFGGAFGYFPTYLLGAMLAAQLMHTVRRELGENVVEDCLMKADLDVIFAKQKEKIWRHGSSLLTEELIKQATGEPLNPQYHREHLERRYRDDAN
measurement kind: inhibition (%)
Express it in %; write the number only.

Q: For the compound "O=c1[nH]c(C=Cc2cccc(OCCOc3ccccc3)c2)nc(O)c1[N+](=O)[O-]" , give its measured inhibition value.
Result: 42.9

Q: For the compound "N#Cc1ccc(S(=O)(=O)N2CCN(Cc3cccc(-c4ccncc4)c3)CC2)cc1" , give its measured inhibition value.
Result: 96.6

Q: For the compound "O=C(c1cccc(Cl)c1Cl)N1CCn2c1nc(-c1ccncc1)cc2=O" , give its measured inhibition value.
Result: 78

Q: For the compound Fc1ccccc1N1CC2CCN(c3cccnc3)CC2C1 (stereo not drawn) , give its measured inhibition value.
Result: 80.2

Q: For the compound CCOC(=O)c1cn[nH]c1S(=O)(=O)N1CCC1c1ccccc1 (stereo not drawn) , give its measured inhibition value.
Result: 69

Q: For the compound CCn1c(-c2nonc2N)nc2c(C(C)O)ncc(OC(CN)c3ccccc3)c21 (stereo not drawn) , give its measured inhibition value.
Result: 87

* * *

molecular target: TcMCP-1 (Trypanosoma cruzi, UniProt Q6ZXC0); experiment: Continuous fluorogenic (FRET) TcMCP-1 assay with Abz-LKFK(Dnp)-OH, primary and secondary screening; type: biochemical; settings: secondary (31,5 µM) / primary (25 µM) inhibition
Sequence (Q6ZXC0 entry or part of it): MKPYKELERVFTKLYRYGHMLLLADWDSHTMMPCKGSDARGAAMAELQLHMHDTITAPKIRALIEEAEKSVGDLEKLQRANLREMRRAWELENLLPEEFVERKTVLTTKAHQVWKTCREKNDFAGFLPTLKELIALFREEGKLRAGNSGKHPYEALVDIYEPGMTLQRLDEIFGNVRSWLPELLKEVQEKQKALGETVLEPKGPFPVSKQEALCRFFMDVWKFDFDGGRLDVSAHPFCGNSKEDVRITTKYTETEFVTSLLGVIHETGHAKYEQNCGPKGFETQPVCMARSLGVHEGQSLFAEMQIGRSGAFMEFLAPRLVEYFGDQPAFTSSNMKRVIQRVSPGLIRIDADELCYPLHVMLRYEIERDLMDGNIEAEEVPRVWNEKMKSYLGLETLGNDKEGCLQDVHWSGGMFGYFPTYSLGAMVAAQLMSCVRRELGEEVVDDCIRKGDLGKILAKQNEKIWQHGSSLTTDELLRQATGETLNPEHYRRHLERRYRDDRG
measurement kind: TcMCP-1 2º/1º ratio

Q: For the compound C[C@@H](Oc1cc(-n2cnc3ccc(O[C@H]4CCNC4)cc32)sc1C(N)=O)c1ccccc1Cl [TCMDC-143515] , give its measured TcMCP-1 2º/1º ratio value.
Result: 1,02

Q: For the compound COc1cc(Nc2nccc(Nc3onc(C)c3C)n2)cc(S(=O)(=O)C2CCOCC2)c1 [TCMDC-143462] , give its measured TcMCP-1 2º/1º ratio value.
Result: 1,40

Q: For the compound CC(Cn1ccnc1)NC(=O)COc1ccc(Cl)c(Cl)c1 (stereo not drawn) [TCMDC-143479] , give its measured TcMCP-1 2º/1º ratio value.
Result: 0,31

Q: For the compound O=c1[nH]c(C=Cc2cccc(OCCOc3ccccc3)c2)nc(O)c1[N+](=O)[O-] [TCMDC-143209] , give its measured TcMCP-1 2º/1º ratio value.
Result: 1,09

Q: For the compound CC(C)Oc1cccc(N2CCC(C(=O)N3CCCN(C(C)C)CC3)CC2)c1.Cl [TCMDC-143432] , give its measured TcMCP-1 2º/1º ratio value.
Result: 1,27

Q: For the compound Cn1ccnc1CN1CCc2[nH]cnc2C1c1ccccc1OCc1ccccc1 (stereo not drawn) [TCMDC-143242] , give its measured TcMCP-1 2º/1º ratio value.
Result: 1,02

* * *

biological target: TcMCP-1 (Trypanosoma cruzi, UniProt Q6ZXC0); experiment: Continuous fluorogenic (FRET) TcMCP-1 assay with Abz-LKFK(Dnp)-OH, primary and secondary screening; type: biochemical; settings: four-parameter Hill fit of dose-response curve
measurement kind: TcMCP-1 Hill Slope

Q: For the compound CC(C)Oc1ccc(C(=O)Nc2ccc(N3CCOCC3)c(Cl)c2)cc1 [TCMDC-143592] , give its measured TcMCP-1 Hill Slope value.
Result: -0,8919

Q: For the compound Cn1ccnc1CN1CCc2[nH]cnc2C1c1ccccc1OCc1ccccc1 (stereo not drawn) [TCMDC-143242] , give its measured TcMCP-1 Hill Slope value.
Result: -1,237

Q: For the compound N#Cc1ccc(S(=O)(=O)N2CCN(Cc3cccc(-c4ccncc4)c3)CC2)cc1 [TCMDC-143620] , give its measured TcMCP-1 Hill Slope value.
Result: -1,06

Q: For the compound CS(=O)(=O)c1cccc(CNC(=O)c2cncc(N3CCN(c4ccc(F)cc4)CC3)c2)c1 [TCMDC-143385] , give its measured TcMCP-1 Hill Slope value.
Result: -0,9614

Q: For the compound CC(C)N(C(=O)CN1C(=O)C(N)C(=O)N(c2ccccc2)c2ccccc21)c1ccccc1 (stereo not drawn) [TCMDC-143071] , give its measured TcMCP-1 Hill Slope value.
Result: -1,235

Q: For the compound CN(C)c1ccc(-c2cc3nccnc3c(OC[C@H]3CCCNC3)n2)cn1.Cl [TCMDC-143408] , give its measured TcMCP-1 Hill Slope value.
Result: -1,153

Q: For the compound COc1ccc2ncc(Cl)c(CCN3CC[C@@H](NCc4cc5c(cn4)OCS5)[C@H](O)C3)c2n1 [TCMDC-143513] , give its measured TcMCP-1 Hill Slope value.
Result: -0,9734

Q: For the compound O=C(NNC(=O)c1ccccn1)c1ccc(-c2ccccc2)cc1 [TCMDC-143263] , give its measured TcMCP-1 Hill Slope value.
Result: -0,9946

Q: For the compound Fc1ccccc1N1CC2CCN(c3cccnc3)CC2C1 (stereo not drawn) [TCMDC-143422] , give its measured TcMCP-1 Hill Slope value.
Result: -1,038

Q: For the compound C[C@@H](Oc1cc(-n2cnc3ccc(O[C@H]4CCNC4)cc32)sc1C(N)=O)c1ccccc1Cl [TCMDC-143515] , give its measured TcMCP-1 Hill Slope value.
Result: -1,149

Q: For the compound Cl.NS(=O)(=O)c1ccc(Nc2ncc3cccc(OC4CCNCC4)c3n2)cc1 [TCMDC-143382] , give its measured TcMCP-1 Hill Slope value.
Result: -0,7277

Q: For the compound O=C(Nc1nc2cc(Cl)ccc2o1)c1cccc(Cl)c1 [TCMDC-143172] , give its measured TcMCP-1 Hill Slope value.
Result: -2,825

Q: For the compound CCOC(=O)c1cn[nH]c1S(=O)(=O)N1CCC1c1ccccc1 (stereo not drawn) [TCMDC-143456] , give its measured TcMCP-1 Hill Slope value.
Result: -0,9597

Q: For the compound CN(CC1CCCO1)S(=O)(=O)c1ccc(C(=O)Nc2nc(-c3ccccn3)cs2)cc1 (stereo not drawn) [TCMDC-143551] , give its measured TcMCP-1 Hill Slope value.
Result: -1,834

Q: For the compound CC(C)Oc1cccc(N2CCC(C(=O)N3CCCN(C(C)C)CC3)CC2)c1.Cl [TCMDC-143432] , give its measured TcMCP-1 Hill Slope value.
Result: -0,6129

Q: For the compound COc1cc(Nc2nccc(Nc3onc(C)c3C)n2)cc(S(=O)(=O)C2CCOCC2)c1 [TCMDC-143462] , give its measured TcMCP-1 Hill Slope value.
Result: -0,9436

Q: For the compound O=c1[nH]c(C=Cc2cccc(OCCOc3ccccc3)c2)nc(O)c1[N+](=O)[O-] [TCMDC-143209] , give its measured TcMCP-1 Hill Slope value.
Result: -1,019

Q: For the compound COc1ccc(S(=O)(=O)Nc2ccc(CN3CCN(C(=O)c4cccc(C#N)c4)CC3)cc2)cc1.O=C(O)C(F)(F)F [TCMDC-143496] , give its measured TcMCP-1 Hill Slope value.
Result: -0,822

Hello, the source for this data is paper PMC6675120, in case you need it.
